Exercise: state measured EC50 for each of the molecules provided.
molecular target: Human LPA1 (Homo sapiens, UniProt Q92633); assay: Beta-Arrestin based assay for human LPA1R antagonists (PathHunter); conditions: CHO cells expressing ProLink tagged human LPA1R; antagonist mode, 0.5 micromolar LPA
Sequence (Q92633 whole entry): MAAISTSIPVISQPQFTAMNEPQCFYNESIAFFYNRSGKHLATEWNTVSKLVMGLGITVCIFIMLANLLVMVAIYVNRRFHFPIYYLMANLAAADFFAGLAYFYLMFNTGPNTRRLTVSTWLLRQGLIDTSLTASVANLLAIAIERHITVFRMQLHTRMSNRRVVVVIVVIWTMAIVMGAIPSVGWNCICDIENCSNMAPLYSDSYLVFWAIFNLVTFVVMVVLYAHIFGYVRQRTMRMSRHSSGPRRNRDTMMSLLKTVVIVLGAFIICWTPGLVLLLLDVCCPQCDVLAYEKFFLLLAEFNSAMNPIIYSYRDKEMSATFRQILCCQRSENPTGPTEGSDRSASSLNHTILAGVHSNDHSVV

IN: Please give measured EC50 of the following entry: Cc1noc(-c2ccc(-c3ccc4c(c3)NC(=O)CC4C(=O)O)cc2)c1NC(=O)O[C@H](C)c1ccccc1 (some centres unmarked)
OUT: 50 to 500 nM

IN: Please give measured EC50 of the following entry: C[C@@H](OC(=O)Nc1c(-c2ccc(-c3cc4sc(C5(C(=O)O)CC5)cc4s3)cc2)nnn1C)c1ccccc1
OUT: < 50 nM

IN: Please give measured EC50 of the following entry: C[C@@H](OC(=O)Nc1c(-c2ccc(C#CC3(C(=O)O)CC3)cc2)cnn1C)c1ccccc1
OUT: > 500 nM

IN: Please give measured EC50 of the following entry: Cc1nnn(-c2ccc(-c3cc4sc(C5(C(=O)O)CC5)cc4s3)cc2)c1NC(=O)O[C@H](C)c1ccccc1
OUT: 50 to 500 nM

IN: Please give measured EC50 of the following entry: C[C@@H](OC(=O)Nc1c(-c2cc(F)c(-c3ccc(C4(C(=O)O)CC4)cc3)cc2F)oc2cnccc12)c1ccccc1
OUT: < 50 nM

IN: Please give measured EC50 of the following entry: C[C@@H](OC(=O)Nc1c(C#Cc2sc3cc(C4(C(=O)O)CC4)sc3c2C(F)(F)F)cnn1C)c1ccccc1
OUT: < 50 nM

IN: Please give measured EC50 of the following entry: C[C@@H](OC(=O)Nc1c(C#Cc2cc3sc(C4(C(=O)O)CC4)cc3s2)nn2ccccc12)c1ccccc1
OUT: 50 to 500 nM

IN: Please give measured EC50 of the following entry: C[C@@H](OC(=O)Nc1c(-c2ccc(-c3ccc(C4(C(=O)O)CC4)cc3)cc2)nc2cnccn12)c1ccccc1
OUT: < 50 nM

* * *

target: Human LPA1 (Homo sapiens); assay: Beta-Arrestin based assay for human LPA1R antagonists (PathHunter); conditions: CHO cells expressing ProLink tagged human LPA1R; antagonist mode, 0.5 micromolar LPA
pEC50: −log10 of the molar value.
Exercise: state measured pEC50 for each of the compounds provided.

IN: Please give measured pEC50 of the following entry: C[C@@H](OC(=O)Nc1c(C#CC2=CCC(C3(C(=O)O)CC3)CC2)cnn1C)c1ccccc1 (stereo partly shown)
OUT: < 6.30

IN: Please give measured pEC50 of the following entry: C[C@@H](OC(=O)Nc1c(C#Cc2ccc3cc(C4(C(=O)O)CC4)ccc3c2)nnn1C)c1ccccc1
OUT: > 7.30

IN: Please give measured pEC50 of the following entry: Cc1noc(C#Cc2ccc(NC(=O)C3(C(=O)O)CC3)cc2)c1NC(=O)O[C@H](C)c1ccccc1
OUT: < 6.30

IN: Please give measured pEC50 of the following entry: C[C@@H](OC(=O)Nc1c(C#Cc2cc3sc(C4(C(=O)O)CC4)cc3s2)cnn1C)c1ccccc1
OUT: > 7.30

IN: Please give measured pEC50 of the following entry: C[C@@H](OC(=O)Nc1c(-c2cc(F)c(-c3ccc(C4(C(=O)O)CC4)cc3)cc2F)nn2ccccc12)c1ccccc1
OUT: > 7.30

IN: Please give measured pEC50 of the following entry: CC(=O)N1CCn2c(nc(-c3ccc(-c4ccc(C5(C(=O)O)CC5)cc4)cc3)c2NC(=O)O[C@H](C)c2ccccc2)C1
OUT: < 6.30

IN: Please give measured pEC50 of the following entry: Cc1noc(C#Cc2nc3sc(C4(C(=O)O)CC4)cc3s2)c1NC(=O)O[C@H](C)c1ccccc1
OUT: > 7.30

* * *

target: UniProtKB Q92633; test: LPA1 calcium flux assay; details: human LPA1 expressing CHO cells, stimulated with 10 nM LPA; read-out: Ca Flux LPA1 IC50
pIC50: −log10 of the molar value.
Exercise: state measured pIC50 for each of the molecules provided.

IN: Please give measured pIC50 of the following entry: Cc1noc(-c2ccc(-c3ccc(C4(CC(=O)O)CC4)cc3)cc2)c1NC(=O)O[C@H](C)c1ccccc1
OUT: > 7.30

IN: Please give measured pIC50 of the following entry: C[C@@H](OC(=O)Nc1c(-c2ccc(-c3ccc(C4(C(=O)O)CC4)cc3)cc2)nn2ncccc12)c1ccccc1
OUT: 6.30 to 7.30

IN: Please give measured pIC50 of the following entry: C[C@@H](OC(=O)Nc1c(-c2ccc(-c3ccc(C4(C(=O)O)CC4)cc3)cc2)nc2cccnn12)c1ccccc1
OUT: 6.30 to 7.30

IN: Please give measured pIC50 of the following entry: Cc1nsc(-c2ccc(C34CCC(CC(=O)O)(CC3)CC4)cc2)c1NC(=O)O[C@H](C)c1ccccc1
OUT: < 6.30

IN: Please give measured pIC50 of the following entry: C[C@@H](OC(=O)Nc1c(CCc2cc3sc(C4(C(=O)O)CC4)cc3s2)cnn1C)c1ccccc1
OUT: < 6.30

IN: Please give measured pIC50 of the following entry: C[C@@H](OC(=O)Nc1c(-c2ccc(-c3ccc(C4(C(=O)O)CC4)cc3)cc2)sc2ncccc12)c1ccccc1
OUT: 6.30 to 7.30

IN: Please give measured pIC50 of the following entry: Cc1nnn(-c2ccc(-c3cc4sc(C5(C(=O)O)CC5)cc4s3)cc2)c1NC(=O)O[C@H](C)c1ccccc1
OUT: 6.30 to 7.30

IN: Please give measured pIC50 of the following entry: C[C@@H](OC(=O)Nc1c(-c2ccc(-c3cc4sc(C5(C(=O)O)CC5)cc4s3)cc2)cnn1C)c1ccccc1
OUT: 6.30 to 7.30
